Molecular target: B. subtilis RNAP (Bacillus subtilis, UniProt P37870+P37871)
Construct: endogenous in cells; host or cells: Bacillus subtilis strain PL37 (built from strain 168)
Sequence (P37871 whole entry): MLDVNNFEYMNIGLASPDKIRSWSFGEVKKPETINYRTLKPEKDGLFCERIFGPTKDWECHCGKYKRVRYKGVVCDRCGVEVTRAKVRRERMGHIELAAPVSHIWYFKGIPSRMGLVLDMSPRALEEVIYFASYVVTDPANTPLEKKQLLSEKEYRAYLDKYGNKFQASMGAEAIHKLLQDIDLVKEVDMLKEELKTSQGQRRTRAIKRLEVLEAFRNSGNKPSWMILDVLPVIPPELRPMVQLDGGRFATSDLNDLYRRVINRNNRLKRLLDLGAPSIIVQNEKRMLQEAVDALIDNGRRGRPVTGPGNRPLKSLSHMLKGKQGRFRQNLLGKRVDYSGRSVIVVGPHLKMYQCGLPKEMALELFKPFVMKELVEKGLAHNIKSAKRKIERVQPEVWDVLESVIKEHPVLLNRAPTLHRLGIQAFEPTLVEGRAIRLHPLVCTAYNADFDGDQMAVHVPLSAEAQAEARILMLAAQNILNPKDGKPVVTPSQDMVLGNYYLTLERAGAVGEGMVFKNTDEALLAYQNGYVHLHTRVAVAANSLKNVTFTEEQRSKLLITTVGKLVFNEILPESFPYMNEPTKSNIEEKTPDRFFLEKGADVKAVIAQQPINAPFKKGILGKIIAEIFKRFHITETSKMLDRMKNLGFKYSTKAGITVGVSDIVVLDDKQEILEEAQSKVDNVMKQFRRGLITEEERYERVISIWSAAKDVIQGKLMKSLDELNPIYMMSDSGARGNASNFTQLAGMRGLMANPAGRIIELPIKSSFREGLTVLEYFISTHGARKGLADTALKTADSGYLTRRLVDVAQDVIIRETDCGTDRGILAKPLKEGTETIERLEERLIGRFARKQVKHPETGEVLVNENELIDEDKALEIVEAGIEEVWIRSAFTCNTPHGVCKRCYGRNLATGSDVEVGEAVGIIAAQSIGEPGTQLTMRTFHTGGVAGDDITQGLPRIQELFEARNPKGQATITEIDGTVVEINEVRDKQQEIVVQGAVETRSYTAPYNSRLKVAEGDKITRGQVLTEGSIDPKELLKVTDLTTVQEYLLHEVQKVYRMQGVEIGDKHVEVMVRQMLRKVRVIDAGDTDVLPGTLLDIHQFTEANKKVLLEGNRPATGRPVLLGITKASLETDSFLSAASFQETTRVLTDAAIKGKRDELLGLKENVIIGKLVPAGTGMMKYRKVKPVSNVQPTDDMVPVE
Sequence (P20429 whole entry, further chain): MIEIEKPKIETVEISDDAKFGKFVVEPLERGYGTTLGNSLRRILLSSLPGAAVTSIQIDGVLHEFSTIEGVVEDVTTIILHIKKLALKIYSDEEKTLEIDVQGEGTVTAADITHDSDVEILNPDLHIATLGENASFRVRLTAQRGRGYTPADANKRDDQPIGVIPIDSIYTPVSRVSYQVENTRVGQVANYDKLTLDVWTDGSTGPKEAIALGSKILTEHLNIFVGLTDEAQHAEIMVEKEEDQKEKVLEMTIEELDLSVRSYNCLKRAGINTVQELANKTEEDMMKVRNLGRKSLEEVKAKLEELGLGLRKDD
Sequence (O35011 whole entry, further chain): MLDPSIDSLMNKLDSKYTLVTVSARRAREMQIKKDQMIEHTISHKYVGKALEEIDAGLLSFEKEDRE
Sequence (P37870 whole entry): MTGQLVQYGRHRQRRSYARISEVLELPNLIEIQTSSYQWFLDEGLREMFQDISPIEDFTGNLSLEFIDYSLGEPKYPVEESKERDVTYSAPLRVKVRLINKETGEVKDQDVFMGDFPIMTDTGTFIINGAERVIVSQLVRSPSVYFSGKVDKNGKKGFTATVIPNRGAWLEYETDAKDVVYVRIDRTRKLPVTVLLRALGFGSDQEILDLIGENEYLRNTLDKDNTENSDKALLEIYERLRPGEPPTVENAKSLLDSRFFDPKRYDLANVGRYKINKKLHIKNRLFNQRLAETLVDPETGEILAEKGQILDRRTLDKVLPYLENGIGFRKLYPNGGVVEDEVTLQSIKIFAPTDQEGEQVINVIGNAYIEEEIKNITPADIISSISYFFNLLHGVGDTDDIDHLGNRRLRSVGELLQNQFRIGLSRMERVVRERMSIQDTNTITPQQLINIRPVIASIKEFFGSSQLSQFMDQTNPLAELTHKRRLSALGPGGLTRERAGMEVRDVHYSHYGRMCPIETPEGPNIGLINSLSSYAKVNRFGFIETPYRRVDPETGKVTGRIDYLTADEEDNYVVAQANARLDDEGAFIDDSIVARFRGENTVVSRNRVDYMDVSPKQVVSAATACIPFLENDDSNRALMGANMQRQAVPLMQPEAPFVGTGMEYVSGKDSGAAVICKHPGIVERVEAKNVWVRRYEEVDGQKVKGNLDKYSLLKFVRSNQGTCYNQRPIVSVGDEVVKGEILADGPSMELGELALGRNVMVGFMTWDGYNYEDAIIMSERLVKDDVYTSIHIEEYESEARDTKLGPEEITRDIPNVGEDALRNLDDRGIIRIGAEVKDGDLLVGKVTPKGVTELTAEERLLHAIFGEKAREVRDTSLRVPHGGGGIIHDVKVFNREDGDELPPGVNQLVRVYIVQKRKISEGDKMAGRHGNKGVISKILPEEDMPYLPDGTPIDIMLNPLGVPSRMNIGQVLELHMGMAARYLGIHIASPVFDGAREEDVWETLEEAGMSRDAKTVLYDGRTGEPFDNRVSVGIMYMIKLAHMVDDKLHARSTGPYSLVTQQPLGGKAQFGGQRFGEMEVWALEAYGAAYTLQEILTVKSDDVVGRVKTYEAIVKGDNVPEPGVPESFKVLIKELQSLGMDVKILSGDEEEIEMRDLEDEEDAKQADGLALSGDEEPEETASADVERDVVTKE
Assay: Dual reporter assay in strain PL37: test reporter Pxyl-lacZ and ratio of control to test reporter (RES:MUG)
Assay type: cell-based
Settings: strain PL37; Dilution Number 11 (lowest concentration tested: 0.125, 0.016 or 0.0005 μg/ml depending on antibiotic); DMSO control […]
property measured: Ratio of the control reporter (RES): test reporter (MUG)
Give the figure by itself; no unit, no explanation.

Below: 2 compounds and their reported Ratio of the control reporter (RES): test reporter (MUG).
>  <compound>
CC(O)C(=O)O.COc1cc(Cc2cnc(N)nc2N)cc(OC)c1OC [Trimethoprim Lactate]

>  <reading>
1.00

$$$$
>  <compound>
CCn1cc(C(=O)O)c(=O)c2ccc(C)nc21

>  <reading>
1.22

$$$$

Prompt: # query: Ratio of the control reporter (RES): test reporter (MUG) of entry CN[C@H](CC(C)C)C(=O)N[C@H]1C(=O)N[C@@H](CC(N)=O)C(=O)N[C@H]2C(=O)N[C@H]3C(=O)N[C@H](C(=O)N[C@H](C(=O)O)c4cc(O)cc(O)c4-c4cc3ccc4O)[C@H](O)c3ccc(c(Cl)c3)Oc3cc2cc(c3O[C@@H]2O[C@H](CO)[C@@H](O)[C@H](O)[C@H]2O[C@H]2C[C@](C)(N)[C@H](O)[C@H](C)O2)Oc2ccc(cc2Cl)[C@H]1O
Completion: 1.12
